Target: hGIPR (Homo sapiens, UniProt P48546)
Sequence (P48546 22-466): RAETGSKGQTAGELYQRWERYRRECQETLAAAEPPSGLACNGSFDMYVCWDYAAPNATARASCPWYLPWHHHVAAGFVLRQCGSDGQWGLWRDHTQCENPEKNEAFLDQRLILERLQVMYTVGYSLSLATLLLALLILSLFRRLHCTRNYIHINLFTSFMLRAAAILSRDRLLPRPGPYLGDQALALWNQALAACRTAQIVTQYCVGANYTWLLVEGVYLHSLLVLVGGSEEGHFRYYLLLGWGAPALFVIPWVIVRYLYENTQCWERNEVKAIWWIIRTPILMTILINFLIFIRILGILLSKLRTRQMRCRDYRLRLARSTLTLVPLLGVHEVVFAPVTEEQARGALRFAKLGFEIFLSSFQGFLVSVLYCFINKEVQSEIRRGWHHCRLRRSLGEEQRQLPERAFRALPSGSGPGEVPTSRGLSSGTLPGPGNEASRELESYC
Assay: Functional cAMP activation in the presence of 0.1% casein (no HSA);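 note: intracellular cAMP rise after 30 min at 37 °C read by HTRF against a standard curve, scaled between buffer alone (0%) and top control ligand concentration (100%), four-parameter fit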
Type: cell-based
Details: in the presence of 0.1% casein (no HSA); geometric mean; read-out: Relative cAMP EC50, hGIPR
Starred links: 1 amine or outer side, 2 acyl side, 3 side chain; linkers in the order of their positions; H or OH if unused. Non-standard residues stand in square brackets, D forms with d. Groups on a side chain read outwards from the residue. No end group written: not given here. *: point of attachment. C20 diacid = O=C(O)CCCCCCCCCCCCCCCCCCC(=O)*; C18 diacid = O=C(O)CCCCCCCCCCCCCCCCC(=O)*; γGlu = O=C(O)[C@H](CCC(=O)[*:2])N[*:1]; αMe4Pal = C[C@](N)(Cc1ccncc1)C(=O)O; 4Pal = N[C@@H](Cc1ccncc1)C(=O)O; αMeL = CC(C)C[C@](C)(N)C(=O)O; Orn = NCCC[C@H](N)C(=O)O; AEEA = NCCOCCOCC(=O)O; Aib = CC(C)(N)C(=O)O
Quick reference for EC50 among some substances
quantity measured: EC50 (nM)

INSERT INTO assay_data (substance, recorded_value) VALUES
  ('H-Y[Aib]QGTFTSDFS[Orn][αMeL]LDKK([AEEA-γGlu-C18 diacid])AQ[Aib]AFIEYLLE[dA]GPSSGAPPPSGS-NH2 [Example 209]', 0.129),
  ('H-Y[Aib]QGTFTSD[4Pal]S[Orn][αMeL]LDKK([AEEA-γGlu-γGlu-C18 diacid])AQ[αMe4Pal]AFIE[αMe4Pal]LIE[Aib]GPSSGEPPPSGSE-NH2 [Example 988]', 0.198),
  ('Y[Aib]QGTFTSDFSK[αMeL]LDKK([AEEA-γGlu-C20 diacid])AQ[Aib]AFIEYLLEGGPSSGEPPPTEG-NH2 [Example 36]', 0.482),
  ('H-Y[Aib]QGTFTSDFS[Orn][αMeL]LDKK([AEEA-AEEA-γGlu-C18 diacid])AQ[Aib]AFIEYLLE[Aib]GESSGAPPPSGT-NH2 [Example 180]', 0.14),
  ('H-Y[Aib]QGTFTSD[4Pal]S[Orn][αMeL]LDKK([γGlu-γGlu-C18 diacid])AQ[αMe4Pal]AFIEYLIAGGESSGAPPPSGSEE-NH2 [Example 964]', 0.288),
  ('H-Y[Aib]QGTFTSDFS[Orn][αMeL]LDKK([AEEA-γGlu-C18 diacid])AQ[Aib]AFIEYLLEGGPSSGAPPPGGSG-NH2 [Example 64]', 0.309);

====

Molecular target: human GcgR (Homo sapiens, UniProt P47871)
Sequence (P47871 26-477): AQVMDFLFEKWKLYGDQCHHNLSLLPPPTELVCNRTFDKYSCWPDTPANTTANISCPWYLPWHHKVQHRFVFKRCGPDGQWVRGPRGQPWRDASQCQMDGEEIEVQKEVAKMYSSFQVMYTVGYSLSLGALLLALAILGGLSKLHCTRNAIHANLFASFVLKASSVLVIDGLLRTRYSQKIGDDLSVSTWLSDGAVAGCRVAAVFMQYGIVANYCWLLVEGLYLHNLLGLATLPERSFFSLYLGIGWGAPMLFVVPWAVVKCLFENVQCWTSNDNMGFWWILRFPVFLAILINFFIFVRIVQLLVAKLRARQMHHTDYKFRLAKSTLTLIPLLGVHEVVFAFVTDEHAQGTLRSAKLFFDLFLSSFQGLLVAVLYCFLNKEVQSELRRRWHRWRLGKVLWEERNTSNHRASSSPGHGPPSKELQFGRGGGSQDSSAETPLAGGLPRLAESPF
Experiment: Functional cAMP activity in the presence of 1% HSA
Assay type: cell-based
Details: read-out: cAMP Rel EC50, hGcgR
pEC50: −log10 of the molar value. Starred links: 1 amine or outer side, 2 acyl side, 3 side chain; linkers in the order of their positions; H or OH if unused. Non-standard residues stand in square brackets, D forms with d. Groups on a side chain read outwards from the residue. No end group written: not given here. *: point of attachment. C18 diacid = O=C(O)CCCCCCCCCCCCCCCCC(=O)*; γGlu = O=C(O)[C@H](CCC(=O)[*:2])N[*:1]; αMe4Pal = C[C@](N)(Cc1ccncc1)C(=O)O; 4Pal = N[C@@H](Cc1ccncc1)C(=O)O; αMeL = CC(C)C[C@](C)(N)C(=O)O; Orn = NCCC[C@H](N)C(=O)O; AEEA = NCCOCCOCC(=O)O; Aib = CC(C)(N)C(=O)O
quantity measured: pEC50

INSERT INTO results (substance, tested_system, recorded_value) VALUES
  ('Y[Aib]QGTFTSD[4Pal]SQ[αMeL]LD[Orn]K([AEEA-γGlu-γGlu-C18 diacid])AQ[αMe4Pal]AFIEYLIE[dA]GPSSGAPPPSGS-NH2 [Example 1016]', 'human GcgR (Homo sapiens, UniProt P47871)', 6.20),
  ('H-Y[Aib]QGTFTSDFS[Orn][αMeL]LDKK([AEEA-γGlu-C18 diacid])AQ[Aib]AFIEWLLEGGTSSGAPPPSGT-NH2 [Example 177]', 'human GcgR (Homo sapiens, UniProt P47871)', 6.12),
  ('Y[Aib]QGTFTSDFS[Orn][αMeL]LDKK([AEEA-AEEA-γGlu-C18 diacid])AQ[Aib]AFIEYLLE[dA]GPSSG[4Pal]PPPSGS-NH2 [Example 254]', 'human GcgR (Homo sapiens, UniProt P47871)', 6.12);
